assay: Kinetic solubility analysis (CLND: total chemiluminescent nitrogen determination); settings: 0.1N HCl, 1.0% DMSO, 24-hour incubation at ambient temperature, maximum theoretical concentration 100 μM
Quantity Measured: pH 2 solubility (μM)

Smiles String	Uom	Observed Value
CC(C)(C#Cc1ccc(-c2ccc(Cl)c3c(N(C(=O)[C@H]4C[C@H](N)C4)S(C)(=O)=O)nn(CC(F)(F)F)c23)c([C@H](Cc2cc(F)cc(F)c2)NC(=O)Cn2nc(C(F)(F)F)c3c2C(F)(F)[C@@H]2C[C@H]32)n1)S(C)(=O)=O	μM	70
CC(C)(C#Cc1ccc(-c2ccc(Cl)c3c(N(C(=O)[C@@H]4C[C@@H]4COP(=O)(O)O)S(C)(=O)=O)nn(CC(F)(F)F)c23)c([C@H](Cc2cc(F)cc(F)c2)NC(=O)Cn2nc(C(F)(F)F)c3c2C(F)(F)[C@@H]2C[C@H]32)n1)S(C)(=O)=O	μM	1
CC(C)(C#Cc1ccc(-c2ccc(Cl)c3c(N(C(=O)N4CCC[C@H]4CN(CCC(=O)O)C(=O)OCOP(=O)(O)O)S(C)(=O)=O)nn(CC(F)(F)F)c23)c([C@H](Cc2cc(F)cc(F)c2)NC(=O)Cn2nc(C(F)(F)F)c3c2C(F)(F)[C@@H]2C[C@H]32)n1)S(C)(=O)=O	μM	1
CC(C)(C#Cc1ccc(-c2ccc(Cl)c3c(N(C(=O)N4CC[C@@H]4CN(CC(=O)O)C(=O)OCOP(=O)(O)O)S(C)(=O)=O)nn(CC(F)(F)F)c23)c([C@H](Cc2cc(F)cc(F)c2)NC(=O)Cn2nc(C(F)(F)F)c3c2C(F)(F)[C@@H]2C[C@H]32)n1)S(C)(=O)=O	μM	1
CC(C)(C#Cc1ccc(-c2ccc(Cl)c3c(N(C(=O)[C@@H]4C[C@H]4C(=O)O)S(C)(=O)=O)nn(CC(F)(F)F)c23)c([C@H](Cc2cc(F)cc(F)c2)NC(=O)Cn2nc(C(F)(F)F)c3c2C(F)(F)[C@@H]2C[C@H]32)n1)S(C)(=O)=O	μM	1
CC(C)(C#Cc1ccc(-c2ccc(Cl)c3c(N(C(=O)c4ccccc4CN(CCC(=O)O)C(=O)OCOP(=O)(O)O)S(C)(=O)=O)nn(CC(F)(F)F)c23)c([C@H](Cc2cc(F)cc(F)c2)NC(=O)Cn2nc(C(F)(F)F)c3c2C(F)(F)[C@@H]2C[C@H]32)n1)S(C)(=O)=O	μM	1
CC(C)(C#Cc1ccc(-c2ccc(Cl)c3c(N(C(=O)N4CCOC[C@H]4C(=O)OCOP(=O)(O)O)S(C)(=O)=O)nn(CC(F)(F)F)c23)c([C@H](Cc2cc(F)cc(F)c2)NC(=O)Cn2nc(C(F)(F)F)c3c2C(F)(F)[C@@H]2C[C@H]32)n1)S(C)(=O)=O	μM	2
CC(C)(C#Cc1ccc(-c2ccc(Cl)c3c(N(C(=O)N4CCC[C@H]4CN)S(C)(=O)=O)nn(CC(F)(F)F)c23)c([C@H](Cc2cc(F)cc(F)c2)NC(=O)Cn2nc(C(F)(F)F)c3c2C(F)(F)[C@@H]2C[C@H]32)n1)S(C)(=O)=O	μM	61

* * *

Measured solubility accompanies every entry in the list below.
assay: Solubility in simulated intestinal fluids (FaSSIF / FeSSIF); conditions: fed state simulated intestinal fluid (FeSSIF), 25 °C, fessif, thermodynamic from solid

Compound	Uom	solubility
CC(C)(C#Cc1ccc(-c2ccc(Cl)c3c(N(C(=O)c4ccccc4CN(CCC(=O)O)C(=O)OCOP(=O)(O)O)S(C)(=O)=O)nn(CC(F)(F)F)c23)c([C@H](Cc2cc(F)cc(F)c2)NC(=O)Cn2nc(C(F)(F)F)c3c2C(F)(F)[C@@H]2C[C@H]32)n1)S(C)(=O)=O [Compound 21]	µg/mL	1420
CC(C)(C#Cc1ccc(-c2ccc(Cl)c3c(N(C(=O)[C@@H]4C[C@H]4C(=O)O)S(C)(=O)=O)nn(CC(F)(F)F)c23)c([C@H](Cc2cc(F)cc(F)c2)NC(=O)Cn2nc(C(F)(F)F)c3c2C(F)(F)[C@@H]2C[C@H]32)n1)S(C)(=O)=O [Compound 16]	µg/mL	6
CC(C)(C#Cc1ccc(-c2ccc(Cl)c3c(N(C(=O)[C@@H]4C[C@H](C(=O)O)C[C@H](C(=O)O)C4)S(C)(=O)=O)nn(CC(F)(F)F)c23)c([C@H](Cc2cc(F)cc(F)c2)NC(=O)Cn2nc(C(F)(F)F)c3c2C(F)(F)[C@@H]2C[C@H]32)n1)S(C)(=O)=O [Compound 15]	µg/mL	38
CC(C)(C#Cc1ccc(-c2ccc(Cl)c3c(N(C(=O)C4(C(=O)O)CC4)S(C)(=O)=O)nn(CC(F)(F)F)c23)c([C@H](Cc2cc(F)cc(F)c2)NC(=O)Cn2nc(C(F)(F)F)c3c2C(F)(F)[C@@H]2C[C@H]32)n1)S(C)(=O)=O [Compound 18]	µg/mL	21

* * *

assay: Solubility in simulated intestinal fluids (FaSSIF / FeSSIF); settings: fasted state simulated intestinal fluid (FaSSIF), 25 °C, fassif, thermodynamic from solid
Quantity Measured: solubility (µg/mL)

Molecule	Quantity Measured	Operator Symbol	Observed Value
CC(C)(C#Cc1ccc(-c2ccc(Cl)c3c(N(C(=O)N4CC[C@@H]4CN(CC(=O)O)C(=O)OCOP(=O)(O)O)S(C)(=O)=O)nn(CC(F)(F)F)c23)c([C@H](Cc2cc(F)cc(F)c2)NC(=O)Cn2nc(C(F)(F)F)c3c2C(F)(F)[C@@H]2C[C@H]32)n1)S(C)(=O)=O [Compound 36]	solubility	>	7400
CC(C)(C#Cc1ccc(-c2ccc(Cl)c3c(N(C(=O)N4CCOC[C@@H]4CN(CC(=O)O)C(=O)OCOP(=O)(O)O)S(C)(=O)=O)nn(CC(F)(F)F)c23)c([C@H](Cc2cc(F)cc(F)c2)NC(=O)Cn2nc(C(F)(F)F)c3c2C(F)(F)[C@@H]2C[C@H]32)n1)S(C)(=O)=O [Compound 37]	solubility	=	6200
CC(C)(C#Cc1ccc(-c2ccc(Cl)c3c(N(C(=O)[C@@H]4C[C@H](C(=O)O)C[C@H](C(=O)O)C4)S(C)(=O)=O)nn(CC(F)(F)F)c23)c([C@H](Cc2cc(F)cc(F)c2)NC(=O)Cn2nc(C(F)(F)F)c3c2C(F)(F)[C@@H]2C[C@H]32)n1)S(C)(=O)=O [Compound 15]	solubility	=	253
CC(C)(C#Cc1ccc(-c2ccc(Cl)c3c(N(C(=O)N4CCC[C@H]4COP(=O)(O)O)S(C)(=O)=O)nn(CC(F)(F)F)c23)c([C@H](Cc2cc(F)cc(F)c2)NC(=O)Cn2nc(C(F)(F)F)c3c2C(F)(F)[C@@H]2C[C@H]32)n1)S(C)(=O)=O [Compound 29]	solubility	=	802
CC(C)(C#Cc1ccc(-c2ccc(Cl)c3c(N(C(=O)C4(C(=O)O)CC4)S(C)(=O)=O)nn(CC(F)(F)F)c23)c([C@H](Cc2cc(F)cc(F)c2)NC(=O)Cn2nc(C(F)(F)F)c3c2C(F)(F)[C@@H]2C[C@H]32)n1)S(C)(=O)=O [Compound 18]	solubility	=	42
CC(C)(C#Cc1ccc(-c2ccc(Cl)c3c(N(C(=O)c4ccccc4COP(=O)(O)O)S(C)(=O)=O)nn(CC(F)(F)F)c23)c([C@H](Cc2cc(F)cc(F)c2)NC(=O)Cn2nc(C(F)(F)F)c3c2C(F)(F)[C@@H]2C[C@H]32)n1)S(C)(=O)=O [Compound 22]	solubility	=	618
CC(C)(C#Cc1ccc(-c2ccc(Cl)c3c(N(C(=O)[C@@H]4C[C@@H]4COP(=O)(O)O)S(C)(=O)=O)nn(CC(F)(F)F)c23)c([C@H](Cc2cc(F)cc(F)c2)NC(=O)Cn2nc(C(F)(F)F)c3c2C(F)(F)[C@@H]2C[C@H]32)n1)S(C)(=O)=O [Compound 11]	solubility	=	401

* * *

test: Solubility in simulated intestinal fluids (FaSSIF / FeSSIF); conditions: fasted state simulated intestinal fluid (FaSSIF), 25 °C, fassif, thermodynamic from solid
Response key: T means solubility >= 80 µg/mL; F means solubility < 80 µg/mL.

Molecule	Classification
CC(C)(C#Cc1ccc(-c2ccc(Cl)c3c(N(C(=O)[C@@H]4C[C@H]4C(=O)O)S(C)(=O)=O)nn(CC(F)(F)F)c23)c([C@H](Cc2cc(F)cc(F)c2)NC(=O)Cn2nc(C(F)(F)F)c3c2C(F)(F)[C@@H]2C[C@H]32)n1)S(C)(=O)=O [Compound 16]	F
CC(C)(C#Cc1ccc(-c2ccc(Cl)c3c(N(C(=O)N4CCC[C@H]4CN(CCC(=O)O)C(=O)OCOP(=O)(O)O)S(C)(=O)=O)nn(CC(F)(F)F)c23)c([C@H](Cc2cc(F)cc(F)c2)NC(=O)Cn2nc(C(F)(F)F)c3c2C(F)(F)[C@@H]2C[C@H]32)n1)S(C)(=O)=O [Compound 34]	T
CC(C)(C#Cc1ccc(-c2ccc(Cl)c3c(N(C(=O)c4ccccc4CN(CCC(=O)O)C(=O)OCOP(=O)(O)O)S(C)(=O)=O)nn(CC(F)(F)F)c23)c([C@H](Cc2cc(F)cc(F)c2)NC(=O)Cn2nc(C(F)(F)F)c3c2C(F)(F)[C@@H]2C[C@H]32)n1)S(C)(=O)=O [Compound 21]	T
CC(C)(C#Cc1ccc(-c2ccc(Cl)c3c(N(C(=O)[C@H]4C[C@H](NC(=N)N)C4)S(C)(=O)=O)nn(CC(F)(F)F)c23)c([C@H](Cc2cc(F)cc(F)c2)NC(=O)Cn2nc(C(F)(F)F)c3c2C(F)(F)[C@@H]2C[C@H]32)n1)S(C)(=O)=O [Compound 9]	F
CC(C)(C#Cc1ccc(-c2ccc(Cl)c3c(N(C(=O)N4CC(C(=O)O)C4)S(C)(=O)=O)nn(CC(F)(F)F)c23)c([C@H](Cc2cc(F)cc(F)c2)NC(=O)Cn2nc(C(F)(F)F)c3c2C(F)(F)[C@@H]2C[C@H]32)n1)S(C)(=O)=O [Compound 24]	F
CC(C)(C#Cc1ccc(-c2ccc(Cl)c3c(N(C(=O)N4CCOC[C@H]4C(=O)OCOP(=O)(O)O)S(C)(=O)=O)nn(CC(F)(F)F)c23)c([C@H](Cc2cc(F)cc(F)c2)NC(=O)Cn2nc(C(F)(F)F)c3c2C(F)(F)[C@@H]2C[C@H]32)n1)S(C)(=O)=O [Compound 23]	T
CC(C)(C#Cc1ccc(-c2ccc(Cl)c3c(N(C(=O)c4ccccc4C(=O)OCOP(=O)(O)O)S(C)(=O)=O)nn(CC(F)(F)F)c23)c([C@H](Cc2cc(F)cc(F)c2)NC(=O)Cn2nc(C(F)(F)F)c3c2C(F)(F)[C@@H]2C[C@H]32)n1)S(C)(=O)=O [Compound 19]	T
CC(C)(C#Cc1ccc(-c2ccc(Cl)c3c(N(C(=O)N4CCC[C@H]4CNC(=O)OCOP(=O)(O)O)S(C)(=O)=O)nn(CC(F)(F)F)c23)c([C@H](Cc2cc(F)cc(F)c2)NC(=O)Cn2nc(C(F)(F)F)c3c2C(F)(F)[C@@H]2C[C@H]32)n1)S(C)(=O)=O [Compound 32]	T

# credit: patent US12084467B2
